The origin of these recorded values is paper PMC5358875.

Molecular target: T1, human tankyrase 1 ankyrin repeat clusters 2-3 (TNKS1 ARC2-3, residues 315-662) (human, UniProt O95271 315-662)
T1 sequence (looked up): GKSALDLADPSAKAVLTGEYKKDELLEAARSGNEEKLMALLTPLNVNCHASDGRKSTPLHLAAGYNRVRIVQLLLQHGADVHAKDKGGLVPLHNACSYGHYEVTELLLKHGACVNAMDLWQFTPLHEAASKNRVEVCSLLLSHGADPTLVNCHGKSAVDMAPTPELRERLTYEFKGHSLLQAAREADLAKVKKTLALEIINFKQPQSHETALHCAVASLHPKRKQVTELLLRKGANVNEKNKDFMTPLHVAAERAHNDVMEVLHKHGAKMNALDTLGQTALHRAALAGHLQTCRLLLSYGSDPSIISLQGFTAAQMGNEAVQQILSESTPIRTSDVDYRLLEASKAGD
Assay: ITC; TNKS2 ARC4 (160-280 uM) or TNKS1 ARC2-3 (60-150 uM) titrated into the cell with unlabeled peptide (5-15 uM) or Axin1 fragment (8-12 uM); PBS, 0.5 mM TCEP; 25 C; one-site model; stoichiometry = TNKS per peptide or Axin1
Conditions: both partners purified
Bridge positions count the residues as written; N and C are the ends. Square brackets hold non-standard residues; d marks the D form. Aha = [N-]=[N+]=NCC[C@H](N)C(=O)O; m3 = not defined here
The reader will find reported pKd values listed item by item below.
The read-out pKd is expressed as -log10 of concentration in moles per litre.

Solved entries:
[
  {
    "BINDER": "MNIQEQGFPLDLGASFTEDAPRPPVPGEEGELVSTDPRPASYS (domain or fragment, UniProt O15169 1-43, looked up) [human Axin1 residues 1-43]",
    "pKd": 6.08
  },
  {
    "BINDER": "Ac-RE[Aha]GDG[Aha]E-NH2 (bridge 3-7; not fully specified (bridges)) [cp4n2m3c (unlabeled)]",
    "pKd": 6.43
  },
  {
    "BINDER": "human Axin1 residues 1-80 (domain or fragment, UniProt O15169 1-80, looked up) MNIQEQGFPLDLGASFTEDAPRPPVPGEEGELVSTDPRPASYSFCSGKGVGIKGETSTATPRRSDLDLGYEPEGSASPTP",
    "pKd": 5.80
  }
]

pKd reading for Ac-RE[Aha]GDG[Aha]E-NH2 (triazole 3-7 via m3; reading uncertain) [cp4n2m3 (unlabeled)] : 6.59
